Entries with reported pKi on guinea pig σ1 receptor (Cavia porcellus)
Sequence (Q60492 whole entry): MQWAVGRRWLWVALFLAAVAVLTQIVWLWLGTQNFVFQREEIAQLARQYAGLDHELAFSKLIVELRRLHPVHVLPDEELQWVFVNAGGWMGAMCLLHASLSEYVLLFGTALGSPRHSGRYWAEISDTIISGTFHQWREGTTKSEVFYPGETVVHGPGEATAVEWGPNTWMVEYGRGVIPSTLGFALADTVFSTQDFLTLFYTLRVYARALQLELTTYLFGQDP
// returns pKi (minus log10 of molar concentration), number only

1. COc1ccc2c(c1)CCN(CCCCc1ccc(C)cc1)CC2O (single isomer, unassigned; (-)) [(−)-NR2B-Me] ... 7.38

## Input Specify the recorded pKi for COc1ccc2c(c1)CCN(CCCCc1ccc(C)cc1)CC2O (single isomer, unassigned; (+)) [(+)-NR2B-Me] , system: guinea pig σ1 receptor (Cavia porcellus).
## Output 7.04
